System: webbing clothes moth (Tineola bisselliella)
Assay: Biological Test 14: treated filter paper in cardboard box, percent moribund, fabric damage and persistence; further: key: -: no damage; +: slight damage; ++: heavy damage; +++: severe damage
Format: in vivo
Settings: 36 mg on filter paper; After 5 weeks
QUANTITY KIND: degree of damage

Cc1ccc(COC(=O)[C@@H]2[C@H](/C=C(\Cl)C(F)(F)F)C2(C)C)o1 (relative stereo) [Compound (1)] ... -
CCc1ccc(COC(=O)[C@@H]2[C@H](/C=C(\Cl)C(F)(F)F)C2(C)C)o1 (relative stereo) [(2)] ... -
CCCc1ccc(COC(=O)[C@@H]2[C@H](/C=C(\Cl)C(F)(F)F)C2(C)C)o1 (relative stereo) [(3)] ... -
CC1(C)C(/C=C(\Cl)C(F)(F)F)C1C(=O)OCc1coc(Cc2ccccc2)c1 (stereo not shown) [A, reference compound] ... +++
C=CCc1ccc(COC(=O)[C@@H]2[C@H](/C=C(\Cl)C(F)(F)F)C2(C)C)o1 (relative stereo) [(4)] ... -
C#CCc1ccc(COC(=O)C2C(/C=C(\Cl)C(F)(F)F)C2(C)C)o1 (stereo not shown) [C, reference compound] ... +++

Pending compound:
INPUT: Please give the documented degree of damage of CC1(C)C(/C=C(\Cl)C(F)(F)F)C1C(=O)OCc1ccc(C(F)F)o1 (stereo not shown) [B, reference compound]
OUTPUT: +++

These measurements were taken from patent US6048892A.
